Exercise: state measured GI50 for each of the compounds provided.
Test system: IGROV-1
Test Description: NCI tumour cell line growth inhibition, 48 h
Activity calls are given as the source filed them. No stated cut-off is given here; in the data, active = GI50 up to about 1.1 µM and inactive = higher.

*Q* Query: GI50; subject: CCC(=O)OC[n+]1ccc2c(C)c3[nH]c4ccc(OC)cc4c3c(C)c2c1
*A* 0.048 µM (active)

*Q* Which GI50 value is on record for NC(CCC(=O)O)(CCC(=O)O)CCC(=O)O ?
*A* > 100 µM (inactive)

*Q* For the compound shown here, COc1cc(C2OC(N)=C(C#N)C3=C2C(C)CCC3)cc(OC)c1OC (stereo unspecified) , give the reported GI50.
*A* 47.1 µM (inactive)

*Q* So what's the measured GI50 for this one? CCOC(=O)Nc1cc(NC(/C=N/NC(C)=O)C(=O)OCC)c(OC)cc1NC(C)=O (stereo unspecified)
*A* > 100 µM (inactive)

*Q* Quick one: GI50 for NC(CS)C(=O)NCCNc1ccc(NCCNC(=O)C(N)CS)c2c1C(=O)c1c(O)ccc(O)c1C2=O (stereo unspecified) ?
*A* 0.219 µM (active)

*Q* Using the record for COC1(OC)N=C(N)C2(C#N)C(C)=C3NCN(C)N=C3C12C#N (stereo unspecified) , report its GI50.
*A* > 100 µM (inactive)

*Q* Look up GI50 for this compound: COC(=O)CCC(=O)c1ccc2c(c1)CC1(C2)Cc2ccc3c(c2C1)CCCC3=O (stereo unspecified)
*A* 21.9 µM (inactive)

*Q* Look at this compound and give its reported GI50. COC(=O)C1=Nc2c(C)nn(-c3ccccc3)c2N=C(c2ccc([N+](=O)[O-])cc2)C1
*A* > 10 µM (inactive)

*Q* What does the record list as GI50 for O=C(O)CC/C(=N\Nc1nsc2ccccc12)c1ccc(Cl)cc1 ?
*A* 30.1 µM (inactive)

*Q* Fill in the blank: the reported GI50 of C#CCOC(=O)c1ccc(OC(C)=O)cc1 is ____.
*A* > 100 µM (inactive)

*Q* Could you tell me which GI50 is on file for Cc1cn(C2CC(N(C)C)C(CO)O2)c(=O)[nH]c1=O (stereo unspecified) ?
*A* > 100 µM (inactive)
